Biological target: UniProtKB P11509
Sequence (P11509 1-494): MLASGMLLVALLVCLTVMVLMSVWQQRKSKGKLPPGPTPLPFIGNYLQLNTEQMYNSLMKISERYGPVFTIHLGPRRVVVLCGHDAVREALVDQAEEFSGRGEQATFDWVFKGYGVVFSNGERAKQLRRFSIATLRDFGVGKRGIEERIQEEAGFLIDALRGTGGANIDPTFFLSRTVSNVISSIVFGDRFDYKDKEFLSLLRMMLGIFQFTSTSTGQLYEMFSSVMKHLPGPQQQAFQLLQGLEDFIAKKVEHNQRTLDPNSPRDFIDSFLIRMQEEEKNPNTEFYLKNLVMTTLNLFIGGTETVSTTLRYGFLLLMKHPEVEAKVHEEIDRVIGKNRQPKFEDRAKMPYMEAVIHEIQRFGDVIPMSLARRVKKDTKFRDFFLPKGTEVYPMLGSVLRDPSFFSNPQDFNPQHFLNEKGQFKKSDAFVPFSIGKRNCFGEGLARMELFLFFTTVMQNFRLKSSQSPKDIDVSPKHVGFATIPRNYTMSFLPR
Assay: Coumarin 7-hydroxylation inhibition assay
Format: biochemical
Details: read-out: IC50 2A6; human P450 2A6 supersomes, coumarin 5 μM, Dixon plot
pIC50: −log10 of the molar value.
For each of the molecules below, state its pIC50.

# example entries with known answers
1) C#CCOc1ccccc1-c1cc(=O)c2ccccc2o1; < 5.00
2) O=c1cc(-c2ccccc2O)oc2ccccc12 [2′-HF, reference compound]; < 4.30
3) C#CCOc1ccc(-c2cc(=O)c3ccccc3o2)cc1; < 5.00

Dear reader, for each entry below, please note its pIC50.
1. O=c1cc(-c2cccc(O)c2)oc2ccccc12 [3′-HF, reference compound]
2. C#CCOc1cccc(-c2cc(=O)c3ccccc3o2)c1
3. C#CCOc1ccc2c(=O)cc(-c3ccccc3)oc2c1

Result string:
["< 4.30", "< 5.00", "< 5.00"]

Go through the items and report each one's pIC50.
1. O=c1cc(-c2ccccc2)oc2ccc(O)cc12 [Compound 6-HF, reference compound]
2. C#CCOc1cccc2oc(-c3ccccc3)cc(=O)c12
3. O=c1cc(-c2ccc(O)cc2)oc2ccccc12 [4′-HF, reference compound]
4. C#CCOc1ccc2oc(-c3ccccc3)cc(=O)c2c1

Result string:
< 4.30
< 5.00
< 4.30
< 5.00
